Assay: Cytotoxicity against mouse RAW264.7 cells assessed as cell viability at 100 uM after 24 hrs by MTT assay
Type: cell-based
Conditions: read-out: Activity
Would you kindly list viability at 24 h, 100 µM for each of these compounds?
Give bare numbers, in %.

Field: example entries. Status: answers known.
C=C1CC[C@@H]2[C@](C)(CO)[C@H](O)CC[C@@]2(C)[C@@H]1C/C=C1/C(=O)OC[C@H]1O [ANDROGRAPHOLIDE]; 49.6
C[C@]1(CO)[C@H]2CC[C@@]3(CO3)[C@@H](CCC3=CCOC3=O)[C@]2(C)CC[C@H]1O; 88.4
C=C1CC[C@@H]2[C@](C)(CO)CCC[C@@]2(C)[C@@H]1CCC1=CCOC1=O [ANDROGRAPANIN]; 99.8
C=C1CC[C@@H]2[C@](C)(CO)[C@H](O)CC[C@@]2(C)[C@@H]1CCC1=CCOC1=O [DEOXYANDROGRAPHOLIDE]; 100
C=C1CC[C@@H]2[C@](C)(CO)[C@H](O)CC[C@@]2(C)[C@]1(O)CCC1=CCOC1=O; 86
C[C@@]1(CO)[C@H](O)CC[C@@]2(C)C(CCC3=CCOC3=O)=C(CO)CC[C@H]12; 91.1

I'm hoping you can list viability at 24 h, 100 µM for every compound here, please.
1. C=C1CC[C@@H]2[C@](C)(CO)[C@H](O)CC[C@@]2(C)[C@]1(O)/C=C/C1=CCOC1=O
2. CN(C)c1ccc(O)c2c1C[C@H]1C[C@H]3[C@H](N(C)C)C(O)=C(C(N)=O)C(=O)[C@@]3(O)C(O)=C1C2=O [MINOCYCLINE]

1: 98.6; 2: 100

Below is a list of compounds. For each, state its recorded viability at 24 h, 100 µM.
1. C=C1CC[C@@H]2[C@](C)(CO)[C@H](O)C[C@@H](O)[C@@]2(C)[C@@H]1CCC1=CCOC1=O
2. C=C1CC[C@H]2[C@@](C)([C@H](O)CC(=O)[C@@]2(C)CO)[C@@H]1CCC1=CCOC1=O

1. 101
2. 100

List reported viability at 24 h, 100 µM for each of these compounds:
1. C=C1CC[C@@H]2[C@](C)(CO)C(=O)CC[C@@]2(C)[C@]1(O)CCC1=CCOC1=O
2. C=C1CC[C@H]2[C@@](C)(CCC(=O)[C@@]2(C)CO)[C@@H]1CCC1=CCOC1=O

1: 87.5; 2: 110

Give viability at 24 h, 100 µM for each listed item.
1. C=C1[C@@H](CCC2=CCOC2=O)[C@]2(C)CC[C@@H](O)[C@@](C)(CO)[C@H]2C[C@@H]1O
2. C[C@@]12CCC(=O)[C@@](C)(CO)[C@H]1CCC(CO)=C2CCC1=CCOC1=O
3. C[C@@]12CCC(=O)[C@@](C)(CO)[C@H]1CC=C(CO)[C@H]2CCC1=CCOC1=O

89.1
101
104

Determine from records and report viability at 24 h, 100 µM for C=C1CC[C@@H]2[C@](C)(COC3O[C@H](CO)[C@@H](O)[C@H](O)[C@H]3O)CCC[C@@]2(C)[C@@H]1CCC1=CCOC1=O (stereo partly specified)
81.4
